# System: citric acid-induced cough
# assay-details: Citric acid-induced cough in guinea pigs (antitussive activity)
# Format: in vivo, guinea pig
# condition-notes: ip, 133 μmol/kg, 30 min before second citric acid exposure, guinea pig, mean ± SEM
measurement-type: % Cough Episode (Composed with Vehicle Control)

| compound-structure | experimental-target | value-reported |
| --- | --- | --- |
| CC[C@@H]1[C@@H]2CCCCN3[C@@H]2[C@@H](C[C@H]3[C@@H]2C[C@H](C)C(=O)O2)[C@H]2[C@@H]1OC(=O)[C@H]2C | citric acid-induced cough | 76.3 ± 14.7 (ip) % |
| CC[C@@H]1[C@H]2CCCCN3[C@@H]2[C@@H](C[C@H]3[C@@H]2C[C@H](C)C(=O)O2)[C@H]2[C@@H]1OC(=O)[C@H]2C | citric acid-induced cough | 50.7 ± 16.6 (ip) % |
| CC[C@@H]1[C@H]2CCCCN3CC[C@@H]([C@H]4[C@@H]1OC[C@H]4C)[C@@H]23 | citric acid-induced cough | 54.4 ± 10.6 (ip) % |
| CC[C@@H]1[C@H]2CCCCN3CC[C@@H]([C@H]4[C@@H]1OC(=O)[C@H]4C)[C@@H]23 | citric acid-induced cough | 29.9 ± 8.3 (ip) % |
| CC[C@@H]1[C@H]2CCCCN3[C@H]2[C@@H](C[C@H]3[C@@H]2C[C@H](C)C(=O)O2)[C@H]2[C@@H]1OC(=O)[C@H]2C | citric acid-induced cough | 16.1 ± 7.3% |
